# target.desc: T1, 5-domain TAT10772 (human)
# T1 construct: Recombinant portion of the extracellular domain, expressed in CHO cells; also called 5-mucin domain
# T1 chain: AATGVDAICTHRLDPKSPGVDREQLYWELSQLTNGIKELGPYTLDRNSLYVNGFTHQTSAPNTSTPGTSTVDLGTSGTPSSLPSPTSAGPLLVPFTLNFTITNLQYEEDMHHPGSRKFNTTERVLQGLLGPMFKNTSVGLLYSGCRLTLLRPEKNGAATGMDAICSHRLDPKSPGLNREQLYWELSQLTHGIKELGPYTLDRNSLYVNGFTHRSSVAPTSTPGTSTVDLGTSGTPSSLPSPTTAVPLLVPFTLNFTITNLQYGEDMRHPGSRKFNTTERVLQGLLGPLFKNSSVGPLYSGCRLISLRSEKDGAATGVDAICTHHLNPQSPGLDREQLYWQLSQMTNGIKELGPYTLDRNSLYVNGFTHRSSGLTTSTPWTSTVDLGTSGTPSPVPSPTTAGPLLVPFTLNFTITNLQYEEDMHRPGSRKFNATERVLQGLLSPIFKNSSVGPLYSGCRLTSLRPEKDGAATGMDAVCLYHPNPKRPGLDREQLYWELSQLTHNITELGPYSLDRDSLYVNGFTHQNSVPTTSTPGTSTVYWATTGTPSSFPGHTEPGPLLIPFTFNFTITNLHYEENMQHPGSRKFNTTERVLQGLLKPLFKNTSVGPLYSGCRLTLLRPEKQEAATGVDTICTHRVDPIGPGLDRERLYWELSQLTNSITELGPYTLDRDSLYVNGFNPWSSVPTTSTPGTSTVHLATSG
# assay.remarks: Biacore SPR, 5′-domain TAT10772 over immobilized IgG
metric: kon (M⁻¹ s⁻¹)
Output spec: scalar in M⁻¹ s⁻¹, unitless text.

In the examples that follow, each entry is paired with its recorded kon.
3A5 chimera (mu3A5-H; SEQ ID NO: 11) (antibody, V domains shown, IgG; also called chimeric 3A5; chimeric antibody) VH: DVQLQESGPGLVNPSQSLSLTCTVTGYSITNDYAWNWIRQFPGNKLEWMGYINYSGYTTYNPSLKSRISITRDTSKNQFFLHLNSVTTEDTATYYCARWDGGLTYWGQGTLVTVSA VL: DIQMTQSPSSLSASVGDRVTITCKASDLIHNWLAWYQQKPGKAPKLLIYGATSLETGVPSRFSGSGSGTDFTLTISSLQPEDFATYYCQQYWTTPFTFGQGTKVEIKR	44800
3A5v1 (SEQ ID NO: 198) (antibody, V domains shown, Humanized IgG) VH: EVQLVESGGGLVQPGGSLRLSCAASGYSITNDYAWNWVRQAPGKGLEWVGYINYSGYTTYNPSLKSRFTISRDTSKNTLYLQMNSLRAEDTAVYYCARWASGLDYWGQGTLVTVSS VL: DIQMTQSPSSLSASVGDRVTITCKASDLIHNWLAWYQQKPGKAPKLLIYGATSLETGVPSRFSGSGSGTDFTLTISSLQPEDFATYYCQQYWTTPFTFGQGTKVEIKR	36900

stdin: What value of measured kon is listed for 3A5.F-graft (SEQ ID NO: 13), IgG (antibody, V domains shown, IgG) VH: EVQLVESGGGLVQPGGSLRLSCAASGYSITNDYAWNWVRQAPGKGLEWVGYINYSGYTTYNPSLKSRFTISRDNSKNTFYLQMNSLRAEDTAVYYCARWDGGLTYWGQGTLVTVSS VL: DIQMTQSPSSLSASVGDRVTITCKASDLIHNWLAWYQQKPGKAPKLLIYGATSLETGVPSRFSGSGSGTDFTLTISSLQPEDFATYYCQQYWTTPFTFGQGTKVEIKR ?
stdout: 28500
